- study.system: BK virus VP1 protein, genotype III (BK virus)
- protocol.summary: cell-based or functional assay
Answer each item with its documented EC50, pseudovirus neutralization.

EC50, pseudovirus neutralization lookup needed for 9B4 (antibody, V domains shown) VH: QVQLVESGGDLVKPGGSLRLSCVASGFTFSDYYMNWIRLPPGKGLEWISYIDSSAGAIYYADSVKGRFTVSRDDAKNSLFLHMNSLRADDTAVYYCARERREGHKIFDFWGPGTLVTVSS VL: DIVMTQSPDSLALSLGERATINCKSSQNILYSSNNKNYLACYQQKAGQPPKLLIFWSSTRESGVPDRFSGSGSGTDFTLTISSLQAEDVAVYYCQQYYSSPYNFGRGTTLEIK , thanks.
0.0118 nM

And 7A4 (antibody, V domains shown) VH: QVQLVESGGDLVKPGGSLRLSCVASGFTFSDYYMNWIRLPPGKGLEWISYIDSSAGAIYYADSVKGRFTVSRDDAKNSLFLHMNSLRADDTAVYYCVRERRDGHKIFDYWGPGTLVTVSS VL: DIVMTQSPDSLAVSLGERATINCKSSQNILYSSNNKNYLAWYQQKAGQPPKLLIFWSSIRESGVPDRFSGSGSGTDFTLTISSLQAEDVAVYYCQQYYSSPYNFGRGTTLEIK ?
0.0081 nM

Again, but for 8A11 (antibody, V domains shown) VH: QVQLVESGGDLVKPGGSLRLSCVASGFTFSDYYMNWIRLPPGKGLEWISYIDSSAGATYYADSVKGRFTVSRDDAKNSLFLHMNSLRAEDTAVYYCARERRSGHKIFDCWGPGTLVTVSS VL: DIVMTQSPDSLAVSLGERATINCKSSQNILYSSNNKNYLAWYQQKAGQPPKLLIFWSSTRESGVPDRFSGSGSGTDFTLTISSLQAEDVAVYYCQQYYSSPYNFGRGTTLEIK
0.0315 nM

Try this binder too: 7H8 (antibody, V domains shown) VH: EVQLLESGGGLVQPGGSLRLSCAASGFAFHTYDMTWVRQAPGKGLEWVSGVVGSGINTYYADSVKGRFTISRDNSKSTLYLQMNSLRAEDTAVYYCAKDSSSWFSLHYWGQGTLVTVSS VL: DIQMTQSPSTLSASVGDRVTITCRASQSISNWLAWYQQKPGKAPKLLIYKASSLESGVPSRFSGSGSGTDFTLTISSLQPDDFASYYCQQYRSYAYTFGQGTKLEIT
0.0334 nM

Then what about the binder 4F7 (antibody, V domains shown) VH: QVQLVESGGDLVKPGGSLRLSCVASGFTFSDYYMNWIRLPPGKGLEWISYIDSSAGAIYYADSVKGRFTVSRDDAKNSLFLHMNNLRADDTAVYYCARERRDGHKIFDCWGPGTLVTVSS VL: DIVMTQSPDSLAVSLGERATINCKSSQNILYSSNNKNYLAWYQQKAGQPPKLLIFWSSTRESGVPDRFSGSGSGTDFTLTISSLQAEDVAVYYCQQYYSSPYNFGRGTTLEIK ?
0.0143 nM

Now consider 1E2 (antibody, V domains shown) VH: QVQLVESGGDLVKPGGSLRLSCVASGFTFSDYYMNWIRLPPGKGLEWVSYIDSSAGAIYYADSVRGRFTVSRDDAKNSLFLHMNSLRADDTAVYYCARERRDGHKIFDCWGPGTLVTVSS VL: DIVMTQSPDSLAVSLGERATINCKSSQNILYSSNNKNYLAWYQQKAGQPPKLLIFWSSTRESGVPDRFSGSGSGTDFTLTINSLQAEDVAVYYCQQYYSSPYNFGRGTTLEIK and answer again.
0.0081 nM

// next record 14F5 (antibody, V domains shown) VH: EVQLLESGGGLVQPGGSLRLSCAVSGFTFSSFAMSWVRQAPGKGLEWVSGISASGGTTNYADSVKGRFTISRDNSKNTLYLQMSSLRAEDTAEYYCAKDRFLEWVEGFDPWGQGILVTVSP VL: DIQMTQSPSSLSASVGDRVTITCRASQSIGRFLIWYQQKPGKAPKLLLYATSSLQSGVPARFTGSGSGTDFTLTIGSLQPEDFATYYCQQSYITPLTFGGGTKVEIK
0.0215 nM

Another binder to check: 2F11 (antibody, V domains shown) VH: EVQLVQSGAEVKKPGESLKISCKGSGYSFTNYWIGWVRQMPGKGLEWMGIIYPGDSDTRYSPSFQGQVTLSADKSISTAYLQWNSLKASDTAMYYCATHARSWNYVAYWGQGTLVTVAS VL: DIQMTQSPSSLSASVGDRVTITCRASQSVNNFLNWYQQKPGTAPKLLIYAASSLQGGVPSRFSGSGSGTDFTLTISSLQPEDFATYYCQQSNTTPWTFGQGTKVEIK
0.0105 nM

Also need 6E1 (antibody, V domains shown) VH: EVQLLESGGGLVQPGGSLRLSCAASGFTFSSFAMSWVRQAPGKGLEWVSGISGSGGSTYYADSVKGRFTISRDNSKNTLYLQMNSLRAEDTAIYYCAKDKRNWNYGIDSFDFWGQGTMVTVSS VL: DIQMTQSPSSLSASVGGRVTITCRTSQSISGYLNWYQQKAGKAPKLLIYATSNLQSGVPSRFTGSGSGTDFTLTISSLQPEDFAAYYCHQSHSPPFTFGPGTKVAFK , thanks.
> 6.67 nM

Would you mind doing 9G9 (antibody, V domains shown) VH: EVQLLESGGGLVQPGGSLRLSCAASGFTFHNYAMSWVRQAPGKGLEWVSGISGSGGTAYYADSVKGRFTISRDNSKNTLYLQMNSLRADDTALYYCAKDRFLEWVEGFDSWGQGTLVTVSS VL: DIQMTQSPSSLSASVGDRVTITCRASQSIGSFLIWYQQKPGKAPKLLIYAASSLQSGVPSRFSGSGSGTDFTLIISSLQPEDFATYYCQQSYNTPLTFGGGTKVEIK as well?
1.7 nM

Numbers sourced from patent US20250304658A1.
